Below, each entry is listed with its recorded Double labeled.
test: Stability of oxygen-18 labeled organic acids in the sample preparation procedure (L/L extraction, MTBSTFA derivatization, GC/MS); settings: L/L 80 min. extraction
QUANTITY_KIND: Double labeled (%)

{"COMPOUND": "CC(O)C(C)C(=O)O (stereo not shown) [3-hydroxy-2-methyl butyric acid]", "MEASURED_NUMBER": 85}
{"COMPOUND": "CC=CC(=O)NCC(=O)O", "MEASURED_NUMBER": 85}
{"COMPOUND": "CCCC(=O)NCC(=O)O", "MEASURED_NUMBER": 85}
{"COMPOUND": "O=C(O)C(O)CO (stereo not shown)", "MEASURED_NUMBER": 84}
{"COMPOUND": "O=C(O)Cc1ccc(O)cc1 [4-hydroxy phenyl acetic acid]", "MEASURED_NUMBER": 81}
{"COMPOUND": "CCC(O)C(=O)O (stereo not shown) [oxygen-18-containing 2-OH Butyric Acid, 2-hydroxy-butyric acid]", "MEASURED_NUMBER": 83}
{"COMPOUND": "CC(C)CC(O)C(=O)O (stereo not shown) [2-hydroxy isocaproic acid]", "MEASURED_NUMBER": 83}
